Collected melting point values appear next to each entry.
Structures can show the parent of a compound that is named as a salt.
metricName: melting point

{"columns": ["compound", "measValue"],
 "data": [
  ["Clc1ccc2c(c1)CC1CNCCN21 (racemic) (as salt: hydrochloride)", "258 to 262 °C (dec.)"],
  ["CSc1ccc2c(c1)N1CCNCC1C2 (racemic) (as salt: fumarate)", "196 to 198 °C"],
  ["C[C@H]1CN2c3cc(Cl)ccc3C[C@@H]2CN1 (as salt: hydrochloride)", "265 °C (dec.)"],
  ["Clc1ccc2c(n1)N1CCNCC1C2 (racemic) (as salt: fumarate)", "148 °C"],
  ["Brc1ccc2c(c1)N1CCNCC1C2 (racemic) (as salt: hydrochloride)", "243 to 245 °C"],
  ["Clc1cccc2c1CC1CNCCN21 (racemic) (as salt: hydrochloride)", "265 to 269 °C (dec.)"],
  ["Clc1ccc2c(c1)N1CCNCC1C2 (racemic) (as salt: hydrochloride)", "235 °C (dec.)"],
  ["Fc1cc2c(cc1Cl)N1CCNCC1C2 (racemic) (as salt: fumarate)", "195 to 197 °C"]
]}

Where do the numbers come from? From patent US7145009B2.
